target: Aβ1-42 (Homo sapiens); construct: Aβ1-42 was dissolved in a 50 mM phosphate buffer (pH 7.4); assay: Thioflavin-T assay of Aβ1-42 self-aggregation inhibition; assay type: biochemical; settings: compound 100 µM, Aβ1-42 10 µM, 24 h at 37 °C, Th-T fluorescence
Sequence (P05067 672-713 limits assumed): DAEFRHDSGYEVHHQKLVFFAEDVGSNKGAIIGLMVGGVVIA
recorded.metric: % Inhibition of Aβ Aggregation

Some solved entries appear below for comparison.
Task item: Consider the compound COc1cc2c(=O)c3c(O)c(C/C=C(\C)CCC=C(C)C)c(O)cc3oc2cc1O [Compound 2, cowaxanthone] . State its measured % Inhibition of Aβ Aggregation.
Reply: 58.56 ± 3.28%

Task item: Consider the compound COc1c(O)cc2oc3cc(O)c(CC=C(C)C)c(O)c3c(=O)c2c1C/C=C(\C)CCC=C(C)C [Compound 5, cowanin] . State its measured % Inhibition of Aβ Aggregation.
Reply: Not detected

Task item: Consider the compound COc1c(O)cc2oc3cc(O)c(CC=C(C)C)c(O)c3c(=O)c2c1CC=C(C)C [Compound 3, α-mangostin] . State its measured % Inhibition of Aβ Aggregation.
Reply: Not detected

Task item: Consider the compound COc1c(O)cc2oc3cc4c(c(O)c3c(=O)c2c1C/C=C(\C)CCC=C(C)C)C=CC(C)(C)O4 [Compound 6, fuscaxanthone A] . State its measured % Inhibition of Aβ Aggregation.
Reply: Not detected

Task item: Consider the compound COc1cc2oc3cc(O)c(CC=C(C)C)c(O)c3c(=O)c2c(CC=C(C)C)c1OC [Compound 4, cowaxanthone B] . State its measured % Inhibition of Aβ Aggregation.
Reply: Not detected

More entries:
Task item: Consider the compound COc1c(O)c(CC=C(C)C)c2oc3cc(O)c(CC=C(C)C)c(O)c3c(=O)c2c1CC=C(C)C [Compound 9, 7-O-methylgarcinone E] . State its measured % Inhibition of Aβ Aggregation.
Reply: Not detected

Task item: Consider the compound COc1cc2oc3c(OC)c(O)ccc3c(=O)c2c(O)c1CC=C(C)C [Compound 1, cowagarcinone C] . State its measured % Inhibition of Aβ Aggregation.
Reply: 46.79 ± 5.46%

Task item: Consider the compound COc1c(O)c(CC=C(C)C)c2oc3cc(O)c(CC=C(C)C)c(O)c3c(=O)c2c1C/C=C(\C)CCC=C(C)C [Compound 10, cowagarcinone A] . State its measured % Inhibition of Aβ Aggregation.
Reply: Not detected

---

molecular target: recombinant human MAO-A (Homo sapiens, UniProt P21397); construct: purchased Sigma-Aldrich; assay: Inhibitory activity on recombinant human MAO-A (kynuramine, fluorescence); format: biochemical; details: selective index from Ki values (Ki = IC50/(1 + [S]/Km)); Si = Ki (MAO-B)/Ki (MAO-A)
Sequence (P21397 whole entry): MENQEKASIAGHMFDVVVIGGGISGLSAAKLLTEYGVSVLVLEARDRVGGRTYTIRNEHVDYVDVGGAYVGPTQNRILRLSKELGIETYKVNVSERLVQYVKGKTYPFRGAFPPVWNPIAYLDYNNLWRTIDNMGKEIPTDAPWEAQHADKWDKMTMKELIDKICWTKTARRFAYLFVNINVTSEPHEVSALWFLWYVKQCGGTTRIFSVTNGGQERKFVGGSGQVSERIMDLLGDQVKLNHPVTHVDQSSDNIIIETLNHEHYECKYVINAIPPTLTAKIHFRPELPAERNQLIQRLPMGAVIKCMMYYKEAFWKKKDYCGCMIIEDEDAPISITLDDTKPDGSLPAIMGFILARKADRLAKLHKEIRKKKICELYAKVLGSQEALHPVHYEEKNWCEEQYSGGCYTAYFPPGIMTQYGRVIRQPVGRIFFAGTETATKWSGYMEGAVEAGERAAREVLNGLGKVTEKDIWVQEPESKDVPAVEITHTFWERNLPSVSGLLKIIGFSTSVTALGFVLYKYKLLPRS
Please provide measured Si MAO-A for the entries that follow.

Task item: Consider the compound COc1cc2oc3cc(O)c(CC=C(C)C)c(O)c3c(=O)c2c(CC=C(C)C)c1OC . State its measured Si MAO-A.
Reply: 1.579

Task item: Consider the compound COc1cc2oc3c(OC)c(O)ccc3c(=O)c2c(O)c1CC=C(C)C . State its measured Si MAO-A.
Reply: 3.407

Task item: Consider the compound COc1c(O)cc2oc3cc(O)c(CC=C(C)C)c(O)c3c(=O)c2c1C/C=C(\C)CCC=C(C)C . State its measured Si MAO-A.
Reply: 0.266

Task item: Consider the compound COc1c(O)cc2oc3cc4occc4c(O)c3c(=O)c2c1C/C=C(\C)CCC=C(C)C . State its measured Si MAO-A.
Reply: <0.153

Task item: Consider the compound COc1c(O)c(CC=C(C)C)c2oc3cc(O)c(CC=C(C)C)c(O)c3c(=O)c2c1CC=C(C)C . State its measured Si MAO-A.
Reply: 38.705

---

Target: recombinant human MAO-A (Homo sapiens, UniProt P21397)
Construct: purchased Sigma-Aldrich
Assay: Inhibitory activity on recombinant human MAO-A (kynuramine, fluorescence)
Type: biochemical
Conditions: recombinant human MAO-A, kynuramine substrate; read-out: IC50 MAO-A
Experimental: The inhibitory activity assays of the isolated compound with recombinant human MAO-A and MAO-B (Sigma-Aldrich, St. Louis, MO, USA) were carried out with some modification as described recently by. […] The activity was determined by serial dilution of each concentration of the compounds. […] The fluorescence of 4-hydroxyquinoline (Sigma-Aldrich, St. Louis, MO, USA), a by-product of this reaction, was measured with the excitation wavelength at 310 nm and the emission wavelength at 400 nm. […]
recorded.metric: log10 IC50 (log10 of the value in µM)
Response schema: value (number) is log10 of IC50 in units of µM.

Task item: Consider the compound COc1cc2oc3c(OC)c(O)ccc3c(=O)c2c(O)c1CC=C(C)C [Compound 1, cowagarcinone C] . State its measured log10 IC50.
Reply: 2.00

Task item: Consider the compound COc1c(O)c(CC=C(C)C)c2oc3cc(O)c(CC=C(C)C)c(O)c3c(=O)c2c1CC=C(C)C [Compound 9, 7-O-methylgarcinone E] . State its measured log10 IC50.
Reply: 1.40

Task item: Consider the compound COc1c(O)cc2oc3cc(O)c(CC=C(C)C)c(O)c3c(=O)c2c1CC=C(C)C [Compound 3, α-mangostin] . State its measured log10 IC50.
Reply: 1.90

Task item: Consider the compound COc1c(O)c(CC=C(C)C)c2oc3cc(O)c(CC=C(C)C)c(O)c3c(=O)c2c1C/C=C(\C)CCC=C(C)C [Compound 10, cowagarcinone A] . State its measured log10 IC50.
Reply: 0.55

Task item: Consider the compound COc1cc2oc3cc(O)c(CC=C(C)C)c(O)c3c(=O)c2c(CC=C(C)C)c1OC [Compound 4, cowaxanthone B] . State its measured log10 IC50.
Reply: 1.60

Task item: Consider the compound COc1c(O)cc2oc3cc4c(c(O)c3c(=O)c2c1C/C=C(\C)CCC=C(C)C)C=CC(C)(C)O4 [Compound 6, fuscaxanthone A] . State its measured log10 IC50.
Reply: 1.84

Task item: Consider the compound COc1cc2c(=O)c3c(O)c(C/C=C(\C)CCC=C(C)C)c(O)cc3oc2cc1O [Compound 2, cowaxanthone] . State its measured log10 IC50.
Reply: 2.08

Task item: Consider the compound COc1c(O)cc2oc3cc4occc4c(O)c3c(=O)c2c1C/C=C(\C)CCC=C(C)C [Compound 8, xanthochymusxanthone A] . State its measured log10 IC50.
Reply: 2.00

---

molecular target: recombinant human MAO-B (Homo sapiens, UniProt P27338); construct: purchased Sigma-Aldrich; assay: Inhibitory activity on recombinant human MAO-B (kynuramine, fluorescence); type: biochemical; conditions: selective index from Ki values (Ki = IC50/(1 + [S]/Km)); Si = Ki (MAO-B)/Ki (MAO-A)
Sequence (P27338 whole entry): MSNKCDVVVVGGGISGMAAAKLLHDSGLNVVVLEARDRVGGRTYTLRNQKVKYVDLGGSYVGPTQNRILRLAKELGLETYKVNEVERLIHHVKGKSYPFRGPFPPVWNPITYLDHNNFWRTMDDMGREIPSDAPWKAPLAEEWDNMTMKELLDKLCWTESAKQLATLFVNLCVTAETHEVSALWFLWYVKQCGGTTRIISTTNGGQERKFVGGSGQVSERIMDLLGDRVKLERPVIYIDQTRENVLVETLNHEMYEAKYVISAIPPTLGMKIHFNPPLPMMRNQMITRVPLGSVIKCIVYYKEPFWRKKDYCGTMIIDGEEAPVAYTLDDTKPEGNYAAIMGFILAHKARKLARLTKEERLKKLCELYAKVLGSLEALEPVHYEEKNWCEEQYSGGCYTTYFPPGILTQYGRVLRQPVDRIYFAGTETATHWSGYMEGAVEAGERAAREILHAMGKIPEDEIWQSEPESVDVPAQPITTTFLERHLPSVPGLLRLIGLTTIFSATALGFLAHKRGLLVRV
recorded.metric: Si MAO-B
Enter the number alone.

Task item: Consider the compound COc1cc2oc3c(OC)c(O)ccc3c(=O)c2c(O)c1CC=C(C)C [Compound 1, cowagarcinone C] . State its measured Si MAO-B.
Reply: 0.294

Task item: Consider the compound COc1cc2c(=O)c3c(O)c(C/C=C(\C)CCC=C(C)C)c(O)cc3oc2cc1O [Compound 2, cowaxanthone] . State its measured Si MAO-B.
Reply: 3.254

Task item: Consider the compound COc1c(O)cc2oc3cc(O)c(CC=C(C)C)c(O)c3c(=O)c2c1CC=C(C)C [Compound 3, α-mangostin] . State its measured Si MAO-B.
Reply: 0.821
